target: T1, Aβ1-28 (human); assay: SPR (Biacore T200); antibody captured by anti-human Fc, Aβ1-28 as analyte; global 1:1 fit
T1 construct: Bought peptide (Bachem); also called Aß1-28 monomer; A131-28
T1 sequence (peptide, as listed by the source): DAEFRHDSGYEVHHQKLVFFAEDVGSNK
Measured metric: kon (M⁻¹ s⁻¹)

binder="h2831 (antibody, V domains shown, Humanized IgG mAb; also called PB-0575) VH: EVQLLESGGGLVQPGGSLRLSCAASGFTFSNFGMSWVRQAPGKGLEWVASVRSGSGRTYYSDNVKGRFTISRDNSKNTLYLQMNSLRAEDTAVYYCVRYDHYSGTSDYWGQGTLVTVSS VL: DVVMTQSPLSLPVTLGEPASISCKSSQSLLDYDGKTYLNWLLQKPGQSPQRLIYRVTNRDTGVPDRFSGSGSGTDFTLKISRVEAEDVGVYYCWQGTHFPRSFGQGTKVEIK" obs_value=73100
binder="h2726 (antibody, V domains shown, Humanized IgG mAb; Only the variable domains are tied to the construct; also called PB-0573) VH: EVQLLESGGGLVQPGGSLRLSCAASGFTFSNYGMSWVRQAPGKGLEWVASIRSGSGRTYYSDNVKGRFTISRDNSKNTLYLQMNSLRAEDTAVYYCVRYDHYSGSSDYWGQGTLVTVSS VL: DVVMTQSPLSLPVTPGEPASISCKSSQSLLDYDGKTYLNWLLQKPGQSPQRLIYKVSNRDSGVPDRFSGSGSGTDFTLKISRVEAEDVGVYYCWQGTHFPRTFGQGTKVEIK" obs_value=92300
binder="h2931 (antibody, V domains shown, also called PB-0576) VH: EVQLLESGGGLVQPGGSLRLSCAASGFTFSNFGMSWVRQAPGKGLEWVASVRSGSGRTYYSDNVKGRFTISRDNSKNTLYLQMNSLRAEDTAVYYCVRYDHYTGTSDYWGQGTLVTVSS VL: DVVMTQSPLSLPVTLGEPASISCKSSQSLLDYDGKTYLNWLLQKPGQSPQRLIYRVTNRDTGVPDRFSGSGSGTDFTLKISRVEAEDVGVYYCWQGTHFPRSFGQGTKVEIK" obs_value=94700
binder="h2731 (antibody, V domains shown, Humanized IgG mAb; Only the variable domains are tied to the construct) VH: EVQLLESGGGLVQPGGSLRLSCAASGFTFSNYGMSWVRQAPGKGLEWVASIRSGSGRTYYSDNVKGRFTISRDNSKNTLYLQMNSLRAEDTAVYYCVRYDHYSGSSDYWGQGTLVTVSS VL: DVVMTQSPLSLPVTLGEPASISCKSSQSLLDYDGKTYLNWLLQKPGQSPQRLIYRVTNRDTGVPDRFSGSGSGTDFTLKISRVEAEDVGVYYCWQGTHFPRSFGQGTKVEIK" obs_value=119000

Data provenance is patent US20230331828A1.
